# Tested on: Mm (Mm5MT/C1, mammary gland cancer cells of C3H-strain mice)
# PROTOCOL SUMMARY: 48 h incubation with the salts: cell fluorescence, living cells, multiplication coefficient (Table 3)
# Assay type: cell-based, Murine
# SETUP CONDITIONS: Mm; 48 hs; 50 mcg/ml
For each record, check the reported Percentage of living cells /P %/: if it is below 40% write condition met, else write condition not met.

MOLECULE: CC1=C(CCC(=O)O)c2cc3[nH]c(cc4nc(cc5[nH]c(cc1n2)c(C(C)NC(CCC(=O)O)C(=O)O)c5C)C(C(C)NC(CCC(=O)O)C(=O)O)=C4C)c(C)c3CCC(=O)O.N=C(N)NCCC[C@H](N)C(=O)O.N=C(N)NCCC[C@H](N)C(=O)O (stereo not drawn)
TEST SYSTEM: Mm (Mm5MT/C1, mammary gland cancer cells of C3H-strain mice)
LABEL: condition not met
--
MOLECULE: CC1=C(CCC(=O)O)c2cc3[nH]c(cc4nc(cc5[nH]c(cc1n2)c(C(C)NC(CC(=O)O)C(=O)O)c5C)C(C(C)NC(CC(=O)O)C(=O)O)=C4C)c(C)c3CCC(=O)O.N=C(N)NCCC[C@H](N)C(=O)O.N=C(N)NCCC[C@H](N)C(=O)O (stereo not drawn)
TEST SYSTEM: Mm (Mm5MT/C1, mammary gland cancer cells of C3H-strain mice)
LABEL: condition not met
--
MOLECULE: CC1=C(CCC(=O)O)c2cc3[nH]c(cc4nc(cc5[nH]c(cc1n2)c(C(C)NC(Cc1ccccc1)C(=O)O)c5C)C(C(C)NC(Cc1ccccc1)C(=O)O)=C4C)c(C)c3CCC(=O)O.N=C(N)NCCC[C@H](N)C(=O)O.N=C(N)NCCC[C@H](N)C(=O)O (stereo not drawn)
TEST SYSTEM: Mm (Mm5MT/C1, mammary gland cancer cells of C3H-strain mice)
LABEL: condition met
--
MOLECULE: CSCCC(NC(C)C1=C(C)c2cc3[nH]c(cc4nc(cc5[nH]c(cc1n2)c(C)c5C(C)NC(CCSC)C(=O)O)C(C)=C4CCC(=O)O)c(CCC(=O)O)c3C)C(=O)O.N=C(N)NCCC[C@H](N)C(=O)O.N=C(N)NCCC[C@H](N)C(=O)O (stereo not drawn)
TEST SYSTEM: Mm (Mm5MT/C1, mammary gland cancer cells of C3H-strain mice)
LABEL: condition met
--
MOLECULE: CC1=C(CCC(=O)O)c2cc3[nH]c(cc4nc(cc5[nH]c(cc1n2)c(C(C)NC(CO)C(=O)O)c5C)C(C(C)NC(CO)C(=O)O)=C4C)c(C)c3CCC(=O)O.N=C(N)NCCC[C@H](N)C(=O)O.N=C(N)NCCC[C@H](N)C(=O)O (stereo not drawn) [PP/Ser/2 /Arg/2, l-arginine di/N-seryl/-protoporphyrinate]
TEST SYSTEM: Mm (Mm5MT/C1, mammary gland cancer cells of C3H-strain mice)
LABEL: condition met
